// provenance: paper PMC3057979

System: CD4^+ T cells of recombinant protein vaccinated C57BL/6 mice
Assay type: cell-based
Where no end group is shown, it is not given here.
quantity-measured: SI-rAgs
Enter the number alone.

| monomer-sequence | system-name | test-value |
| --- | --- | --- |
| AKKLFNDPASPVAGN [CBU191081-95] | CD4^+ T cells of recombinant protein vaccinated C57BL/6 mice | 4.8 |
| IRRLVGSFPAEERIG [CBU1645270-284] | CD4^+ T cells of recombinant protein vaccinated C57BL/6 mice | 2.7 |
| ENAKKLFNDPASPVA [CBU191079-93] | CD4^+ T cells of recombinant protein vaccinated C57BL/6 mice | 5.6 |
| RNNYRDSFNNFDASI [CBU038365-79] | CD4^+ T cells of recombinant protein vaccinated C57BL/6 mice | 3.06 |
| IRNKLKIQATINNAK [CBU038398-112] | CD4^+ T cells of recombinant protein vaccinated C57BL/6 mice | 2.22 |

Annotate the sequence RYHAPIYGAVHPRWL [CBU1157179-193] with its measured SI-rAgs.
4.37

Annotate the sequence YIWHFVDGHPIQNQW [CBU0383127-141] with its measured SI-rAgs.
16.22

----------
We begin with a simple list: items and their reported SI-rAgs.
Tested on: CD4^+ T cells of recombinant protein vaccinated C57BL/6 mice
Assay type: cell-based
Where no end group is shown, it is not given here.
Enter the number alone.

Past entries and their recorded results:
| monomer-sequence | SI-rAgs |
| --- | --- |
| RGPWRYIRSFPILAS [CBU115761-75] | 7.17 |
| YVYDSLTTPTASVCQ [CBU1645194-208] | 6 |
| VHHYLVNHPEVLVEA [CBU 1910_43–57] | 15.9 |

Annotate the sequence RYPNEPSRFEPKHID [CBU164510-24] with its measured SI-rAgs.
2.38

Annotate the sequence DLPAAIVDAIAPQEG [CBU1645138-152] with its measured SI-rAgs.
3
